experiment: method code SF-AS, from DOI: 10.1016/0304-4165(87)90236-4, PMID: 2889474
YES means recorded logP is 1 or above; NO means it is below 1.

Please indicate if the recorded logP for C[C@@H]1C[C@H]2OC(=O)[C@@H](C)[C@H]2[C@H](O)[C@]2(C)C(=O)C=C[C@@H]12 meets or exceeds 1.
NO

logP >= 1 for CC1CC2OC(=O)C3(C)C2C(OC3(C)O)C2(C)C(=O)C=CC12 (stereo unspecified) ?
NO

Please check the record C=C1C(=O)O[C@@H]2C[C@@H](C)[C@@H]3C=CC(=O)[C@@]3(C)[C@@H](OC(=O)CC(=O)O[C@H]3[C@@H]4C(=C)C(=O)O[C@@H]4C[C@@H](C)[C@@H]4C=CC(=O)[C@]43C)[C@H]12 and state if its logP is at or above 1.
YES

Given the entry C=C1C(=O)O[C@@H]2C[C@@H](C)[C@@H]3C=CC(=O)[C@@]3(C)[C@@H](OC(=O)CCCC(=O)O[C@H]3[C@@H]4C(=C)C(=O)O[C@@H]4C[C@@H](C)[C@@H]4C=CC(=O)[C@]43C)[C@H]12 , answer whether its logP meets or surpasses 1.
YES

Form field: logP at least 1? Entry: CC1=C2[C@@H](C[C@@H](C)[C@@H]3C=CC(=O)[C@@]3(C)[C@H]2O)OC1=O
YES

Decide: is the reported value of logP for C=C1C(=O)O[C@@H]2C[C@@H](C)[C@@H]3C4CC(=O)[C@]3(C[C@H]12)[C@@]1(C4)C(=O)O[C@@H]2C[C@@H](C)[C@@H]3C=CC(=O)[C@@]3(C)[C@@H](O)[C@@H]21 equal to or greater than 1?
YES

---

Answer each item with its documented logP.
Answers are plain numbers.

Past entries and their recorded results:
Query COC(=O)CSc1ccc([N+](=O)[O-])cc1 yields logP of 2.29

Just so you know, measured logP for COC(=O)CS(=O)c1ccc([N+](=O)[O-])cc1 (stereo not given) came out at 0.98

What the record says about COC(=O)CS(=O)c1ccccc1[N+](=O)[O-] (stereo not given) : logP is 0.98

Each of the following entries comes with a recorded value; kindly state logP for each.
1. COC(=O)CS(=O)(=O)c1ccc([N+](=O)[O-])cc1
2. COC(=O)CS(=O)c1ccc(Cl)cc1[N+](=O)[O-] (stereo not given)

1: 0.92; 2: 1.69

---

experiment: method code SF-HPLC, from DOI: 10.1023/a:1007546905874, PMID: 11205732; settings: pH 7.4
Recorded endpoint: logD
Answers are plain numbers.

// logD value for O=C1OC(c2ccc(O)cc2)(c2ccc(O)cc2)c2ccccc21 : 3.36

---

assay: method code SF-AS, from DOI: 10.1081/jlc-120022394
What logP was measured for each of the following?
One number for each entry.

// below: answered compounds
logP recorded for this compound, CCOC(=O)C(=Cc1ccccc1Cl)NC=O , is 2.41

Reported logP for CCOC(=O)C(=Cc1ccoc1)NC=O was 2.08

Item: CCOC(=O)C(=CC=Cc1ccccc1)NC=O | logP: 2.91

For each of the items listed, what is its logP?
1. CCOC(=O)C(=Cc1cccc(Cl)c1)NC=O
2. CCOC(=O)C(=Cc1ccccc1)NC=O
3. CCOC(=O)C(=Cc1ccc2c(c1)OCO2)NC=O

1: 2.51; 2: 2.48; 3: 1.66
